# test-system: T1, AS325 VHH (camel-derived)
# T1 construct: One of the 10 different camel-derived nanobodies; not shown: His tag (VHH-His)
# T1 sequence (VHH, as listed by the source): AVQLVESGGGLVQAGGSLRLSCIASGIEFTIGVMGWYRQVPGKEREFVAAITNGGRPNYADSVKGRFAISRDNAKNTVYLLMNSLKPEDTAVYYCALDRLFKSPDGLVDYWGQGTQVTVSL
# protocol-notes: indirect ELISA, VHH coated

[
  {
    "binder": "R166.G10 (antibody, V domains shown, Rabbit monoclonal; also called clone R166.G10) VH: QSVEESGGRLVTPGTPLTLTCTVSGFSLSSSAVSWVRQAPGKGLEYIGIIGSGGSTYYASWVNGRFTISKTSTTVDLKMTSLTAADTATYFCARYGGNSGGYDSFNLWGQGTLVTVSS VL: DVVMTQTPASVSEPVGGTVTIKCQASQSIYSHLSWYQQKPGQPPKLLIHGASTLASGASSRFKASGSGTEFTLTISDLECADAATYYCQCTAGTSIYGNAFGGGTEVVVRG",
    "binding result": "binds"
  },
  {
    "binder": "R166.E3 (antibody, V domains shown, Rabbit monoclonal; also called clone R166.E3) VH: QSLEESGGRLVTPGTPLTLTCTVSGIDLSSCVLIWVRQAPEKGLEWIGFIYGSGNAYYANWAKGRFTISKTSSTTVDLKITSPTTEDTATYFCARSQEDDSFGYGFNLWGQGTLVTVSS VL: AYDMTQTPASVEVAVGGTVTINCQASQSIGTYLSWYQQKPGQPPKLLIYRASTLTSGVSSRFKGSGSGTQFTLTISGVECADAATYYCQEGYSDINVNNIFGGGTEVVVKG",
    "binding result": "binds"
  },
  {
    "binder": "R166.F2 (antibody, V domains shown, Rabbit monoclonal; also called clone R166.F2) VH: QSVEESGGRLVTPGTPLTLTCTASGFTISSHDMSWVRQAPGKGLEWIGYIYYGSGSTDYASWAEGRFTITRNTNENTVTLKMTSLTTEDTATYFCARGGYVGGGVDAFDPWGPGTVVTVSS VL: AYDMTQTPASVEVAVGGTVTIKCQASQSIYTYLSWYQQKPGQPPKLLIYRASTLASGVSSRFKGSGSGTDFTLTISGAQCADAATYYCQQGALSSNIHNTFGGGTEVVVKG",
    "binding result": "binds"
  }
]

Reference for the values: patent US20220281997A1
